system: PfSIP2 AP2 domain 1 (GST-tagged); assay: gcPBM binding intensity (ln(normalized median fluorescence intensity)); higher = stronger DNA binding
In all, about 25,000 sequences were measured (“ln(normalized median fluorescence intensity)”: median about 7.1, highest 2% from about 10 on). The sample holds the highest values, similar sequences and a random draw of the others, so the mix is not that of the screen.
Value type: gcPBM binding intensity (ln)
Could you keep your reply to the number by itself?

Check out these entries, answers already filled in.
> print(dat)
                              sequence.text  endpoint.result
1  GGTATACATATTAAATGTACATATTTTAACAATAAG [XGTACX_site4868]              7.1
2  AATAATGAAAAATCAAATAACCTAAATTACAACTGT [XGTACX_negctrl_site65]             6.91
3  AGTAGGCATATTGGTTGTACAAAAAAATTATGCACC [XGTACX_site8925]             10.3

Ask: Given the sequence AAAAAGAATAAATAAATAAATAAATATATATATATA [GTGCAC_negctrl_site584] , what is its reported gcPBM binding intensity (ln)?
Reply: 9.47

Ask: Another sequence to look at: TTATTTATTTATTCATGTACGTGTATTTTTTAAAAA [XGTACX_site7915]
Reply: 7.28

Ask: Another sequence to look at: GATATATAAATAGATACACACATACATACATACATA [CACACA_site6260]
Reply: 7.18

Ask: Another sequence to look at: TGGCTTATTCAGAAATGTACACATATAAATATATAT [XGTACX_site3765]
Reply: 7.11

Ask: Another sequence to look at: AAAAGACATTTTTTTTTATAAATACACACGTACGTG [TGCATGCA_negctrl_site281]
Reply: 6.95

Ask: Another sequence to look at: TTCATTAAAATTATTACACACAGTTCTTCAACCAAA [CACACA_site3504]
Reply: 6.84

Ask: Another sequence to look at: ATATTAAACAAACACACACACATATATATATATATA [CACACA_site3383]
Reply: 9.67

Ask: Another sequence to look at: GACTACACACAAGGGTGTACATATATATTATATATA [XGTACX_site2247]
Reply: 7.31
